# System: DU-145 prostate
# run-description: NCI-60 one-dose screen, 48 h
# test-settings: 10 µM unless noted
# Experimental: Cells are grown in 96 well plates and exposed to the test compound for 48 hours. Compounds are tested at a single concentration, which is 10^-5 M for most compounds. The reported endpoint is percent growth (GI% or GIPRCNT), where numbers from 0 - 100% represent growth inhibition, and numbers from -100% - 0 represent cell death. For example, a value of 40 represents 60% growth inhibition. A value of 0 means no net growth occurred over the course of the experiment. […]
This is part of a sample that, as a whole, favours compounds with a hit. Of some 83,000 tested, about 20% had one in any assay. Activity calls are given as the source filed them. How the source made its calls: active means growth percent below 10; inactive means the rest.
A correct response names exactly one class from True for active, False for inactive

Use the examples below as a reference point.
{"compound": "COc1ccc(/C=C/C(=O)c2ccc(OC)c(OC)c2)cc1O", "label": "False"}
{"compound": "CN1CCN(c2cnc(C(=O)Nc3cc(F)cc4cccnc34)cn2)CC1", "label": "False"}
{"compound": "COc1ccc(-c2nc(SCCC(C)C)nc(N/N=C(/C)c3ccc(C)cc3)c2C#N)cc1", "label": "False"}
{"compound": "CS(=O)(=O)OCCN(CCOS(C)(=O)=O)c1ccc(/C=N/Nc2ccc([N+](=O)[O-])cc2[N+](=O)[O-])cc1", "label": "False"}
{"compound": "C=C(C)[C@@H]1CC[C@]2(C=O)CC[C@]3(C)[C@H](CC[C@@H]4[C@@]5(C)CCCNC(C)(C)[C@@H]5CC[C@]43C)[C@@H]12", "label": "False"}
{"compound": "O=C(/C=C\\c1ccc(OCCCCCC[P+](c2ccccc2)(c2ccccc2)c2ccccc2)cc1)c1ccc2c(c1)OCCO2", "label": "True"}
{"compound": "O=c1[nH]nc(-c2ccc(Cl)cc2)cc1Cc1cccc([N+](=O)[O-])c1", "label": "False"}
{"compound": "Cn1c(COC(=O)NCCc2ccccn2)nc2c(N3CCOCC3)nc(Cl)nc21", "label": "True"}
{"compound": "CN1C(=O)N(C)[C@H]2NC(NN)=N[C@H]21", "label": "False"}
{"compound": "COc1ccccc1OCC(=O)N1CCCCCC1", "label": "False"}

Next:
Query :: Per the assay record, what outcome was assigned to CCN(CC)CCCC(C)Nc1cc(-c2cccc(OC(F)(F)F)c2)nc2ccc(N3CCCC3)cc12 (stereo unspecified) ?
Result :: False
